# protocol text: Stability in rat hepatocytes assessed as residual compound after 60 mins
# Format: ADME, cell-based, Hepatocyte
# measurement parameters: read-out: Stability
measurement type: remaining at 1 h

- O=C(c1ccc(C[C@@H]2CC[C@H]([C@H](O)c3ccccc3)N2)cc1)N1C[C@@H]2[C@H](C1)[C@H]2c1nnco1: ≥ 85%

---

# protocol text: Volume of distribution in rhesus monkey
# Assay type: ADME, organism-based, Macaca mulatta
# measurement parameters: in vivo
measurement type: Vd (L/kg)

- CCc1nnc([C@H]2[C@@H]3CN(C(=O)c4ccc(C[C@@H]5CC[C@H]([C@H](O)c6ccccc6)N5)cc4)C[C@@H]32)o1: 5.2

---

# protocol text: Stability in rat liver microsomes assessed as residual compound after 45 mins
# Format: ADME
# measurement parameters: read-out: Stability
measurement type: remaining at 0.75 h (%)

- O=C(c1ccc(C[C@@H]2CC[C@H]([C@H](O)c3ccccc3)N2)cc1)N1C[C@@H]2[C@H](C1)[C@H]2c1nnco1: 98
- O=C(c1ccc(C[C@@H]2CC[C@H]([C@H](O)c3ccccc3)N2)cc1)N1CCC2(CCOC2=O)CC1: 56

---

# target: Beta-3 adrenergic receptor (Homo sapiens, UniProt P13945)
# Sequence (P13945 whole entry): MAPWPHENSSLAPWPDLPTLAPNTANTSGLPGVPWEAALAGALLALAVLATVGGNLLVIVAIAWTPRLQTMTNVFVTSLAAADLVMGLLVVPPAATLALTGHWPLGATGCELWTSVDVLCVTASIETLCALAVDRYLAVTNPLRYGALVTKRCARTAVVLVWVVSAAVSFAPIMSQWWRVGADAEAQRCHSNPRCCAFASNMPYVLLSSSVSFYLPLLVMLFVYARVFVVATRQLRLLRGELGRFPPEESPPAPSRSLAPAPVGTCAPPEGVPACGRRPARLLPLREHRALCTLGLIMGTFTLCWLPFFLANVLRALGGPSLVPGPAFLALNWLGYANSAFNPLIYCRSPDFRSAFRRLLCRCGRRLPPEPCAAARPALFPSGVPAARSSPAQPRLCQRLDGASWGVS
# protocol text: Agonist activity at human beta-3 adrenergic receptor expressed in CHO cells assessed as increase in cAMP level after 30 mins by LANCE TR-FRET assay
pEC50: −log10 of the molar value.
Would you mind labelling by pEC50? At or over 9 is true (1), under is false (0).

- CCc1nnc([C@H]2[C@@H]3CN(C(=O)c4ccc(C[C@@H]5CC[C@H]([C@H](O)c6ccccc6)N5)cc4)C[C@@H]32)o1: false (0)
- O=C(c1ccc(C[C@@H]2CC[C@H]([C@H](O)c3ccccc3)N2)cc1)N1CCC2(CCOC2=O)CC1: false (0)
- CC1(C)CC2(CCN(C(=O)c3ccc(C[C@@H]4CC[C@H]([C@H](O)c5ccccc5)N4)cc3)CC2)C(=O)O1: false (0)
- CCOC(=O)C1CCN(C(=O)c2ccc(C[C@@H]3CC[C@H]([C@H](O)c4ccccc4)N3)cc2)CC1: false (0)
- Cn1nnc([C@H]2[C@@H]3CN(C(=O)c4ccc(C[C@@H]5CC[C@H]([C@H](O)c6ccccc6)N5)cc4)C[C@@H]32)n1: false (0)
- CCOC(=O)[C@H]1[C@@H]2CN(C(=O)c3ccc(C[C@@H]4CC[C@H]([C@H](O)c5ccccc5)N4)cc3)C[C@@H]21: true (1)
